The measurements presented in this section are drawn from patent US9732119B2.

Entries annotated with measured pIC50
Biological target: PD-1-Ig binding to PD-L1-TVMV-His (PD-L1-His) (Homo sapiens, UniProt Q9NZQ7)
Construct: hPDL1(19-239)-TVMV-His; made in house; host or cells: HEK293T cells
Sequence (Q9NZQ7 with tags, fused parts or gaps): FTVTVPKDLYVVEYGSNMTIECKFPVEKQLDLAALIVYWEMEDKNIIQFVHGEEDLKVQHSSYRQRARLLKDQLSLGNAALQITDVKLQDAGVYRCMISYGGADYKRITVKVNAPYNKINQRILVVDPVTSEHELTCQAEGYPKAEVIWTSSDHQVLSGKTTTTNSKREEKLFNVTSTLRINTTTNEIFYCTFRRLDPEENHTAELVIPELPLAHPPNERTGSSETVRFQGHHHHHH
Assay: PD-1/PD-L1 Homogenous Time-Resolved Fluorescence (HTRF) binding assay
Conditions: PD-1-Ig (20 nM) / PD-L1-His (10 nM); range classes
Excerpt: The ability of the macrocyclic peptides of the present disclosure to bind to PD-L1 was investigated using a PD-1/PD-L1 Homogenous Time-Resolved Fluorescence (HTRF) binding assay. Homogenous Time-Resolved Fluorescence (HTRF) Assays of Binding of Soluble PD-1 to Soluble PD-L1. […]
pIC50: −log10 of the molar value. Positions of bridges follow the written chain, without caps; N, C: chain ends. Non-standard residues stand in square brackets, D forms with d. Residues, ends and D or L forms follow the SMILES beside them. Trp(1-CH2COOH) = N[C@@H](Cc1cn(CC(=O)O)c2ccccc12)C(=O)O; Hyp = O=C(O)[C@@H]1C[C@@H](O)CN1; NMeNle = CCCC[C@H](NC)C(=O)O; dOrn = NCCC[C@@H](N)C(=O)O; Pip = O=C(O)[C@@H]1CCCCN1; NMeA = CN[C@@H](C)C(=O)O; Dab = NCC[C@H](N)C(=O)O; Dap = NC[C@H](N)C(=O)O; Ava = NCCCCC(=O)O

CCCC[C@H]1C(=O)N(C)[C@@H](CCCC)C(=O)N[C@@H](CCC(=O)O)C(=O)N[C@H](C(N)=O)CNCC(=O)N[C@@H](Cc2ccc(O)cc2)C(=O)N2CCCC[C@H]2C(=O)N[C@@H](CC(N)=O)C(=O)N2CCC[C@H]2C(=O)N[C@@H](CCC(N)=O)C(=O)N[C@@H](CC(C)C)C(=O)N2C[C@H](O)C[C@H]2C(=O)N[C@@H](Cc2c[nH]c3ccccc23)C(=O)N[C@@H](CC(N)=O)C(=O)N[C@@H](Cc2cn(CC(=O)O)c3ccccc23)C(=O)N1C : 8.00 to 9.00
CCCC[C@H]1C(=O)N(C)[C@@H](CCCC)C(=O)N[C@@H](CC(C)C)C(=O)NCCCCC(=O)N[C@@H](Cc2ccc(O)cc2)C(=O)N(C)[C@@H](C)C(=O)N[C@@H](CC(N)=O)C(=O)N2CCC[C@H]2C(=O)N[C@@H](CN)C(=O)N[C@@H](CCC(=O)O)C(=O)N2C[C@H](O)C[C@H]2C(=O)N[C@@H](Cc2c[nH]c3ccccc23)C(=O)N[C@@H](CCN)C(=O)N[C@@H](Cc2cn(CC(=O)O)c3ccccc23)C(=O)N1C [Example 10506] (cyclo([Ava]Y[NMeA]NP[Dap]E[Hyp]W[Dab][Trp(1-CH2COOH)][NMeNle][NMeNle]L)) : 8.00 to 9.00
CCCC[C@H]1C(=O)N(C)[C@@H](CCCC)C(=O)N[C@@H](CC(C)C)C(=O)N[C@H](C(N)=O)CNCC(=O)N[C@@H](Cc2ccc(O)cc2)C(=O)N2CCCC[C@H]2C(=O)N[C@@H](CC(N)=O)C(=O)N2CCC[C@H]2C(=O)N[C@@H](CCC(N)=O)C(=O)N[C@@H](CC(=O)O)C(=O)N2C[C@H](O)C[C@H]2C(=O)N[C@@H](Cc2c[nH]c3ccccc23)C(=O)N[C@@H](CC(N)=O)C(=O)N[C@@H](Cc2cn(CC(=O)O)c3ccccc23)C(=O)N1C : 8.00 to 9.00
CCCC[C@H]1C(=O)N(C)[C@@H](CCCC)C(=O)N[C@@H](CC(C)C)C(=O)N[C@H](C(N)=O)COCC(=O)N[C@@H](Cc2ccc(F)cc2)C(=O)N2CCCC[C@H]2C(=O)N[C@@H](CC(N)=O)C(=O)N2CCC[C@H]2C(=O)N[C@@H](CN)C(=O)N[C@@H](CCC(=O)O)C(=O)N2C[C@H](O)C[C@H]2C(=O)N[C@@H](Cc2c[nH]c3ccccc23)C(=O)N[C@@H](CCN)C(=O)N[C@@H](Cc2cn(CC(=O)O)c3ccccc23)C(=O)N1C : 8.00 to 9.00
CCCC[C@H]1C(=O)N(C)[C@@H](CCCC)C(=O)N[C@@H](CC(C)C)C(=O)N2CCC[C@@H]2C(=O)NCC(=O)N[C@@H](Cc2ccc(O)cc2)C(=O)N(C)[C@@H](C)C(=O)N[C@@H](CC(N)=O)C(=O)N2CCC[C@H]2C(=O)N[C@@H](CN)C(=O)N[C@@H](CC(C)C)C(=O)N2C[C@H](O)C[C@H]2C(=O)N[C@@H](Cc2c[nH]c3ccccc23)C(=O)N[C@@H](CCN)C(=O)N[C@@H](Cc2c[nH]c3ccccc23)C(=O)N1C [Example 5008] (cyclo([Dab]W[NMeNle][NMeNle]L[dP]GY[NMeA]NP[Dap]L[Hyp]W)) : 8.00 to 9.00
CCCC[C@H]1C(=O)N(C)[C@@H](CCCC)C(=O)N[C@@H](CC(C)C)C(=O)NCCC[C@@H](N)C(=O)N[C@@H](Cc2ccc(O)cc2)C(=O)N2CCCC[C@H]2C(=O)N[C@@H](CC(N)=O)C(=O)N2CCC[C@H]2C(=O)N[C@@H](CN)C(=O)N[C@@H](CC(C)C)C(=O)N2C[C@H](O)C[C@H]2C(=O)N[C@@H](Cc2c[nH]c3ccccc23)C(=O)N[C@@H](CCN)C(=O)N[C@@H](Cc2cn(CC(=O)O)c3ccccc23)C(=O)N1C [Example 10558] (H-[dOrn]Y[Pip]NP[Dap]L[Hyp]W[Dab][Trp(1-CH2COOH)][NMeNle][NMeNle]L; lactam 1-C) : 7.00 to 8.00
CCCC[C@H]1C(=O)N(C)[C@@H](CCCC)C(=O)N[C@@H](CCC(=O)O)C(=O)N[C@H](C(N)=O)CNCC(=O)N[C@@H](Cc2ccc(O)cc2)C(=O)N2CCCC[C@H]2C(=O)N[C@@H](CC(N)=O)C(=O)N2CCC[C@H]2C(=O)N[C@@H](Cc2c[nH]cn2)C(=O)N[C@@H](CCC(=O)O)C(=O)N2C[C@H](O)C[C@H]2C(=O)N[C@@H](Cc2c[nH]c3ccccc23)C(=O)N[C@@H](C)C(=O)N[C@@H](Cc2cn(CC(=O)O)c3ccccc23)C(=O)N1C : 8.00 to 9.00

Recall the recorded pIC50 for CCCC[C@H]1C(=O)N(C)[C@@H](CCCC)C(=O)N[C@@H](CC(C)C)C(=O)N[C@H](C(=O)NCC(N)=O)CNCC(=O)N[C@@H](Cc2ccc(O)cc2)C(=O)N(C)[C@@H](C)C(=O)N[C@@H](CC(N)=O)C(=O)N2CCC[C@H]2C(=O)N[C@@H](Cc2cnc[nH]2)C(=O)N[C@@H](CC(C)C)C(=O)N2C[C@H](O)C[C@H]2C(=O)N[C@@H](Cc2c[nH]c3ccccc23)C(=O)NCC(=O)N[C@@H](Cc2c[nH]c3ccccc23)C(=O)N1C with PD-1-Ig binding to PD-L1-TVMV-His (PD-L1-His) (Homo sapiens, UniProt Q9NZQ7) and state it.
7.00 to 8.00

====

target: PD-1-Ig binding to PD-L1-TVMV-His (PD-L1-His) (Homo sapiens, UniProt Q9NZQ7); construct: hPDL1(19-239)-TVMV-His; made in house; host or cells: HEK293T cells; assay: PD-1/PD-L1 Homogenous Time-Resolved Fluorescence (HTRF) binding assay; settings: PD-1-Ig (20 nM) / PD-L1-His (10 nM); range classes
Entries annotated with measured IC50

Solved entries:
CCCC[C@H]1C(=O)N(C)[C@@H](CCCC)C(=O)N[C@@H](CC(C)C)C(=O)N[C@H](C(N)=O)CNCC(=O)N[C@@H](Cc2ccc(O)cc2)C(=O)N2CCCC[C@H]2C(=O)N[C@@H](CC(N)=O)C(=O)N2CCC[C@H]2C(=O)N[C@@H](CCC(N)=O)C(=O)N[C@@H](CC(C)C)C(=O)N2C[C@H](O)C[C@H]2C(=O)N[C@@H](Cc2c[nH]c3ccccc23)C(=O)N[C@@H](CC(N)=O)C(=O)N[C@@H](Cc2cn(CC(=O)O)c3ccccc23)C(=O)N1C : 1 to 9.9 nM
CCCC[C@H]1C(=O)N(C)[C@@H](CCCC)C(=O)N[C@@H](CC(C)C)C(=O)N[C@H](C(N)=O)COCC(=O)N[C@@H](Cc2ccc(OC)cc2)C(=O)N2CCCC[C@H]2C(=O)N[C@@H](CC(N)=O)C(=O)N2CCC[C@H]2C(=O)N[C@@H](CN)C(=O)N[C@@H](CC(C)C)C(=O)N2C[C@H](O)C[C@H]2C(=O)N[C@@H](Cc2c[nH]c3ccccc23)C(=O)N[C@@H](CCN)C(=O)N[C@@H](Cc2cn(CC(=O)O)c3ccccc23)C(=O)N1C : 10 to 99 nM
CCCC[C@H]1C(=O)N(C)[C@@H](CCCC)C(=O)N[C@@H](CC(C)C)C(=O)N[C@H](C(N)=O)CNCC(=O)N[C@@H](Cc2ccc(O)cc2)C(=O)N2CCCC[C@H]2C(=O)N[C@@H](CC(N)=O)C(=O)N2CCC[C@H]2C(=O)N[C@@H](Cc2c[nH]cn2)C(=O)N[C@@H](CCC(=O)O)C(=O)N2C[C@H](O)C[C@H]2C(=O)N[C@@H](Cc2c[nH]c3ccccc23)C(=O)N[C@@H](C)C(=O)N[C@@H](Cc2cn(CC(=O)O)c3ccccc23)C(=O)N1C : 1 to 9.9 nM
CCCC[C@H]1C(=O)N(C)[C@@H](CCCC)C(=O)N[C@@H](CC(C)C)C(=O)N[C@H](C(=O)NCC(N)=O)CCCNCC(=O)N[C@@H](Cc2ccc(O)cc2)C(=O)N(C)[C@@H](C)C(=O)N[C@@H](CC(N)=O)C(=O)N2CCC[C@H]2C(=O)N[C@@H](Cc2cnc[nH]2)C(=O)N[C@@H](CCC(N)=O)C(=O)N2C[C@H](O)C[C@H]2C(=O)N[C@@H](Cc2c[nH]c3ccccc23)C(=O)NCC(=O)N[C@@H](Cc2c[nH]c3ccccc23)C(=O)N1C : 100 to 10000 nM

Consider now this further compound.
Look at this compound and give its reported IC50. CCCC[C@H]1C(=O)N(C)[C@@H](CCCC)C(=O)N[C@@H](CCC(=O)O)C(=O)N[C@H](C(=O)NCC(N)=O)CNCC(=O)N[C@@H](Cc2ccc(F)cc2)C(=O)N(C)[C@@H](C)C(=O)N[C@@H](CC(N)=O)C(=O)N2CCC[C@H]2C(=O)N[C@@H](CCC(N)=O)C(=O)N[C@@H](CC(=O)O)C(=O)N2C[C@H](O)C[C@H]2C(=O)N[C@@H](Cc2c[nH]c3ccccc23)C(=O)N[C@@H](CC(N)=O)C(=O)N[C@@H](Cc2cn(CC(=O)O)c3ccccc23)C(=O)N1C
10 to 99 nM
